# Format: in vivo, human
# condition notes: human, plasma, oral, 150 mg, Cmin, Day 14; 150 mg once daily; matched controls (moderate); geometric mean (SD)
measurement label: concentration at 14 day

Entry `CCCCOCCOc1ccc(-c2ccc3c(c2)/C=C(/C(=O)Nc2ccc([S@@+]([O-])Cc4cncn4CCC)cc2)CCCN3CC(C)C)cc1` , concentration at 14 day reported as 140 ng/mL

###

# Type: in vivo, human
# condition notes: human, plasma, oral, 150 mg, Vz/F, Day 14; 150 mg once daily; mild hepatic impairment; geometric mean (SD)
measurement label: Vd/F (L)
Numbers only, in L.

Lab note: measured Vd/F of CCCCOCCOc1ccc(-c2ccc3c(c2)/C=C(/C(=O)Nc2ccc([S@@+]([O-])Cc4cncn4CCC)cc2)CCCN3CC(C)C)cc1 [cenicriviroc] was 995

###

# Format: in vivo, human
# condition notes: human, plasma, oral, 150 mg, Vz/F, Day 14; 150 mg once daily; matched controls (moderate); geometric mean (SD)
measurement label: Vd/F (L)
One number for each entry, in L.

For this compound ( CCCCOCCOc1ccc(-c2ccc3c(c2)/C=C(/C(=O)Nc2ccc([S@@+]([O-])Cc4cncn4CCC)cc2)CCCN3CC(C)C)cc1 [cenicriviroc] ), measured Vd/F is 816

###

# Assay type: in vivo, human
# condition notes: human, plasma, oral, 150 mg, Vz/F, Day 14; 150 mg once daily; matched controls (mild); geometric mean (SD)
measurement label: Vd/F (L)
Answers are plain numbers, in L.

Lab note: `CCCCOCCOc1ccc(-c2ccc3c(c2)/C=C(/C(=O)Nc2ccc([S@@+]([O-])Cc4cncn4CCC)cc2)CCCN3CC(C)C)cc1` gave Vd/F of 455

###

# Type: in vivo, human
# condition notes: human, plasma, oral, 150 mg, Tmax, Day 14; 150 mg once daily; matched controls (moderate); geometric mean (SD)
measurement label: Tmax (h)
Give bare numbers, in h.

What the record says about `CCCCOCCOc1ccc(-c2ccc3c(c2)/C=C(/C(=O)Nc2ccc([S@@+]([O-])Cc4cncn4CCC)cc2)CCCN3CC(C)C)cc1` : Tmax is 4.49

###

# Format: in vivo, human
# condition notes: human, plasma, oral, 150 mg, Tmax, Day 14; 150 mg once daily; mild hepatic impairment; geometric mean (SD)
measurement label: Tmax (h)
Numbers only, in h.

The reported Tmax of the molecule `CCCCOCCOc1ccc(-c2ccc3c(c2)/C=C(/C(=O)Nc2ccc([S@@+]([O-])Cc4cncn4CCC)cc2)CCCN3CC(C)C)cc1` was 5.34

###

# Assay type: in vivo, human
# condition notes: human, plasma, oral, 150 mg, Cmin, Day 14; 150 mg once daily; matched controls (mild); geometric mean (SD)
measurement label: concentration at 14 day (ng/mL)
One number for each entry, in ng/mL.

Sure, the documented concentration at 14 day for CCCCOCCOc1ccc(-c2ccc3c(c2)/C=C(/C(=O)Nc2ccc([S@@+]([O-])Cc4cncn4CCC)cc2)CCCN3CC(C)C)cc1 [cenicriviroc] is 248

###

# Type: in vivo, human
# condition notes: human, plasma, oral, 150 mg, t1/2, Day 1; 150 mg; moderate hepatic impairment; geometric mean (SD)
measurement label: half-life (h)
Answers are plain numbers, in h.

The compound listed as CCCCOCCOc1ccc(-c2ccc3c(c2)/C=C(/C(=O)Nc2ccc([S@@+]([O-])Cc4cncn4CCC)cc2)CCCN3CC(C)C)cc1 [cenicriviroc] has a reported half-life of 10.4
